Each recorded value in this set is attributed to patent US20250145711A1.

experimental system: T1, TRCW5 antigen (CD3δε-Fc-Avi) (biotinylated (site not stated))
T1 construct: also called recombinant CD3
T1 sequence (chain, as listed by the source mutant limits assumed): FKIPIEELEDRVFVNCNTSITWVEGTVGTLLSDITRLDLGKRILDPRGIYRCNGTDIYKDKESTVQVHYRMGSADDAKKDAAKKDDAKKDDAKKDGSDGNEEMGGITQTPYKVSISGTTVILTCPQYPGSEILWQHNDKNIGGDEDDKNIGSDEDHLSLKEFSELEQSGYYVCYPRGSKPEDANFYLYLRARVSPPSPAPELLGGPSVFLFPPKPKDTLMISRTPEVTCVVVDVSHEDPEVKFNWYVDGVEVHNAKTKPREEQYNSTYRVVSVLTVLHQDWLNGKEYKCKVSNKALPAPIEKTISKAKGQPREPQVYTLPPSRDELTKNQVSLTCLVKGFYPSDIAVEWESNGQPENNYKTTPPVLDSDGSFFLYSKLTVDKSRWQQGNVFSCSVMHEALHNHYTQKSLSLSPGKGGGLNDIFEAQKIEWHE
assay info: ELISA after heat
Assignment: determine reported % Retained 55° C. for the given binders.
One number for each entry, in %.

The cases that follow already have their % Retained 55° C. on record.
CD3B2087 (scFv) scFv: QVQLVQSGAEVKKPGSSVKVSCKASGYTFTRSTMHWVRQAPGQGLEWMGYINPSSAYTNYAQKFQGRVTLTADKSTSTAYMELSSLRSEDTAVYYCASPQVHYDYNGFPYWGQGTLVTVSSGGSEGKSSGSGSESKSTGGSEIVLTQSPATLSASPGERVTLSCSASSSVSYMNWYQQKPGTAPRRLIYDSSKLASGVPARFSGSGSGRDYTLTISSLEPEDFAVYYCQQWSRNPPTFGGGTKVEIK :: 104
CD3B2062 (scFv) scFv: QVQLVQSGAEVKKPGSSVKVSCKASGYTFTRSTMHWVKQAPGQGLEWIGYINPSSAYTNYAQKFQGRVTLTADKSTSTAYMELSSLRSEDTAVYYCASPQVHYDYNGFPYWGQGTLVTVSSGGSEGKSSGSGSESKSTGGSEIVLTQSPATLSASPGERVTLSCSASSSVSYMNWYQQKPGTSPRRLIYDSSKLASGVPARFSGSGSGRDYTLTISSLEPEDFAVYYCQQWSRNPPTFGGGTKVEIK :: 110

Next item in the queue.
## Input What measured % Retained 55° C. goes with CD3B2056 (scFv) scFv: QVQLVQSGAEVKKPGSSVKVSCKASGYTFTRSTMHWVRQAPGQGLEWIGYINPSSAYTNYNQKFQGRVTLTADKSTSTAYMELSSLRSEDTAVYYCASPQVHYDYNGFPYWGQGTLVTVSSGGSEGKSSGSGSESKSTGGSEIVLTQSPATLSASPGERVTLSCSASSSVSYMNWYQQKPGQSPRRLIYDSSKLASGVPARFSGSGSGRDYTLTISSLEPEDFAVYYCQQWSRNPPTFGGGTKVEIK ?
## Output 101
